// melting point lookup, one value per entry

Consider the following illustrative entries.
                                   molecule  experimental_endpoint  recorded_result
0             O=C(CN1CCCC1)Nc1c(I)cc(I)cc1I          melting point    184 to 186 °C
1  CCN(CC)S(=O)(=O)c1ccc(N2CCC(C(=O)O)CC2)c([N+](=O)[O-])c1          melting point    204 to 206 °C
2           CC(=O)c1nnn(-c2cccc3ncccc23)c1C          melting point    116 to 118 °C
3     CC(C(=O)O)N1CCSCC1 (stereo not given)          melting point    199 to 201 °C

query: // lookup melting point for COc1ccccc1SCC(=O)NN
result: 109 to 111 °C

Data provenance: a melting point compilation (Tetko et al.)
